Source: PubChem BioAssay (NCI)

- measurement_notes: NCI Yeast Anticancer Drug Screen. Data for the mlh1 rad18 strain (AID 175)
- reported_conditions: S. cerevisiae mlh1 rad18 strain growth inhibition; at 50.0 µM; hits give high values
Compounds without any hit were thinned out: in the full panel of roughly 79,000, 15% have a hit.
I'd be grateful if you could share measured growth inhibition for these entries.
Answers are plain numbers, in %.

Below are 5 compounds. Give each one its growth inhibition.
1. COC/C=N/Nc1ccc([N+](=O)[O-])cc1
2. O=C(O)c1cc2cc3ccccc3cc2cc1O
3. CC(C)(C)c1cc(C(O)(C(F)(F)F)C(F)(F)F)c(S)c(C(O)(C(F)(F)F)C(F)(F)F)c1
4. CSc1cc(C(=O)O)nc(N)n1
5. CC(=O)N=C1N(/C=C2\C(=O)Oc3ccccc3C2=O)C(=O)/C(=C/c2ccco2)N1C

98.5
64.7
99
-12.3
98.7

###

- measurement_notes: NCI Yeast Anticancer Drug Screen. Data for the bub3 strain (AID 167)
- reported_conditions: S. cerevisiae bub3 mutant strain, at 50.0 µM (retest, dose inferred, filed as 5.0)
The panel holds about 79,000 compounds, 15% with a hit somewhere; the sample as a whole holds those more often. The source made the active and inactive calls. No stated cut-off is given here; in the data, active means growth inhibition above about 70%; inactive means the rest.
Respond using exactly one of the listed classes: active, inactive

Here's what some known entries look like.
CC(C)N(CN1C(=O)N/C(=C/c2cccc(/C=C3/NC(=O)N(CN(C(C)C)C(C)C)C3=O)c2)C1=O)C(C)C    inactive
COC1/C=C/OC2(C)Oc3c(C)c(O)c4c(c3C2=O)C(=O)C=C(NC(=O)/C(C)=C\C=C\C(C)C(OC=O)C(C)C(O)C(C)C(OC(C)=O)C1C)C4=O (stereo not drawn)    inactive
Cc1c(S(C)=O)[n+](=O)c2ccccc2n1[O-] (stereo not drawn)    active
CC1=C(/C=C/C(C)=N/NC(N)=S)C(C)(C)CCC1    active
CN(C)c1nc(=NCc2ccccc2)ss1    active

Hey, what did the test say about N#CC(C#N)=C(c1ccccc1)c1ccccc1 ?
active

Entry CC(=O)c1csc2c1C(=O)c1scc(C(C)=O)c1C2=O please
inactive

###

- measurement_notes: NCI Yeast Anticancer Drug Screen. Data for the cln2 rad14 strain (AID 165);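 also: 0% = growth equal to vehicle treated cultures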
- reported_conditions: S. cerevisiae cln2 rad14 strain, at 50.0 µM (retest, dose inferred, filed as 5.0)
The panel holds about 79,000 compounds, 15% with a hit somewhere; the sample as a whole holds those more often. Calls of active or inactive are those of the source. Rule as the data show it: active = growth inhibition above about 70%; inactive = the rest.
Assign a class; possible classes are y for active, n for inactive

Cc1c2cc[n+](C)cc2c(C)c2c1sc1ccccc12    y
CCOC(=O)NC(c1ccc(C(NC(=O)OCC)P(=O)(O)NC23CC4CC(CC(C4)C2)C3)cc1)P(=O)(O)NC12CC3CC(CC(C3)C1)C2 (configuration not stated)    n

Dear all, I need the recorded test outcome for CNC(Cc1ccccc1)c1ccc(OC)c2ccccc12 (configuration not stated) , thank you.
n

Note, next up: C/C=C/CC(C/C=C/C)C1CC[N-]CC1.C/C=C/CC(C/C=C/C)C1CC[N-]CC1.[Cl][Pt+2]([Cl])([Cl])[Cl]
n

Then what about the compound CCN(CC)CCOc1ccc(/C=C/c2ccccc2)cc1 ?
y

Now give it for CC(C)SCC1CO1 (configuration not stated) too.
n

Cool, now Cc1ccc(SSCCCCCS(=O)O)cc1
n

Now consider O=S=C(c1ccccc1)N(Cc1ccccc1)Cc1ccccc1 and answer again.
y

Proceed to N#CC(C#N)C(C#N)c1ccc(Cl)c(Cl)c1 (configuration not stated)
y

Entry CCOC(=O)C(Br)C(Br)c1cccc([N+](=O)[O-])c1 (configuration not stated) please
y

Now give it for O=C(Nc1ccccc1)OCCc1ccc(Br)cc1 too.
n

Queued: O=C1CC(=S)NC(=S)N1
n

Also, COC(=O)c1[nH]c(=O)c(C#N)c(C(=O)OC)c1C(=O)c1ccc2ccccc2c1 please.
n

Then what about the compound COc1ccc2c(c1)CCc1c-2ccc(C)c1CCC(=O)O ?
y

Continue with CCOC(=O)/C=C(\C)OCC
n

Thanks! And Cc1cc(C(C)(CC(C)C)c2ccc(O)c(C)c2)ccc1O ?
y

Can you handle CC1=C(C(=O)Nc2cccc(Cl)c2)C(c2ccccc2O)C(C(=O)Nc2cccc(Cl)c2)=C(C)N1 next?
n

What would you report for CC12CC(Br)(Br)C(=O)C3C1CCCC32 ?
n

Also need CCCCNC(=S)NC1C2CC3CC(C2)CC1C3 (configuration not stated) , thanks.
n

Entry to check: CCOC(=S)SCc1nc2ccccc2[nH]1
y

How about O=C(CSC1=NNC2(C(=O)N1)c1ccccc1-c1ccccc12)NC(=S)Nc1ccccc1 ?
y

// repeat for Cc1ccc(-c2c(C#N)c(-c3ccccc3)n(NS(=O)(=O)c3ccc(C)cc3)c(=O)c2C#N)cc1 and report
n

Would you mind doing O=C1C2=C(Nc3cc([N+](=O)[O-])ccc3N2)OC1c1c2ccccc2cc2ccccc12 (configuration not stated) as well?
y

Param item: COc1ccc2c(c1)C(=O)C(Br)CC2 (configuration not stated)
y

Same for O=C1c2ccccc2-c2ccccc2C(=O)C1(Br)Br
n

Same again, this time with O=C1C=CC(=O)C(Sc2ccccc2)=C1
y

Do the same for CC(CO)[C@H]1OC(=O)C=C2[C@@]13O[C@@H]3[C@H]1OC(=O)[C@@]3(C)[C@H]4O[C@H]4C[C@@]2(C)[C@@H]13 (some centres not stated) please
y
